pKd: −log10 of the molar value.
Here's what we have: pKd numbers for RTA (Ricinus communis (Castor bean)).
PROPERTY_NAME: pKd

> print(dat)
                                   compound                   experimental.system  property.name  assay.result
1  O=C(O)c1ccc(-c2cccc3c2OCC3)s1 [RU-NT-105]  RTA (Ricinus communis (Castor bean))            pKd          2.93
2  Cc1cccc(F)c1-c1ccc(C(=O)O)s1 [RU-NT-110]  RTA (Ricinus communis (Castor bean))            pKd          4.03
3  COc1cccc(C)c1-c1ccc(C(=O)O)s1 [RU-NT-111]  RTA (Ricinus communis (Castor bean))            pKd          4.29
4     Cc1ccccc1-c1ccc(C(=O)O)s1 [RU-NT-070]  RTA (Ricinus communis (Castor bean))            pKd          4.14
5  Cc1cccc(O)c1-c1ccc(C(=O)O)s1 [RU-NT-113]  RTA (Ricinus communis (Castor bean))            pKd          4.51

---

EXPERIMENTAL_SYSTEM: Stx2A1 (Escherichia phage 933W (Bacteriophage 933W))
Sequence (P09385 23-272 limits assumed): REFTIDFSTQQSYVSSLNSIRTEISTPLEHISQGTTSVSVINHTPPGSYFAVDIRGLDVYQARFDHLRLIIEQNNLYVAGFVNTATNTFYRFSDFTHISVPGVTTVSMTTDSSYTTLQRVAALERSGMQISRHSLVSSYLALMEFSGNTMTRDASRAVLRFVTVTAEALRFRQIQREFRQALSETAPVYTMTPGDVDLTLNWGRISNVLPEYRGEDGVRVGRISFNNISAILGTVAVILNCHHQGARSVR
pIC50: −log10 of the molar value.
PROPERTY_NAME: pIC50

> print(dat)
                smiles.notation  assay.result
1  O=C(O)c1ccc(-c2ccc(Cl)cc2)o1          3.71

---

EXPERIMENTAL_SYSTEM: Stx2A1 (Escherichia phage 933W (Bacteriophage 933W))
METHOD_NOTES: biochemical
Type: biochemical
TEST_CONDITIONS: read-out: % inhibition Stx2A1 in yeast ribosome
Parameter inhibition at 100 µM: see the listing below.
PROPERTY_NAME: inhibition at 100 µM (%)

> print(dat)
                                   compound  endpoint.unit  assay.result
1  O=C(O)c1cc2c(s1)-c1ccccc1CC2 [drawing 373]              %            51
2              O=C(O)c1csc(-c2cccc(Cl)c2)n1              %            83
3            O=C(O)c1csc(-c2cccc(Cl)c2Cl)n1              %            82
4               Cc1ccc(-c2ccc(C(=O)O)o2)cc1              %            64

---

EXPERIMENTAL_SYSTEM: RTA (Ricinus communis (Castor bean), UniProt P02879)
METHOD_NOTES: biochemical
Format: biochemical
TEST_CONDITIONS: read-out: Percent inhibition at 50 μM
PROPERTY_NAME: inhibition at 50 µM (%)

> print(dat)
                     smiles.notation                       experimental.system        property.name  endpoint.unit  assay.result
1      COc1cccc(C)c1-c1ccc(C(=O)O)s1  RTA (Ricinus communis (Castor bean), UniProt P02879)  inhibition at 50 µM              %            66
2  Cc1cc(C)c(-c2ccc(C(=O)O)s2)c(C)c1  RTA (Ricinus communis (Castor bean), UniProt P02879)  inhibition at 50 µM              %            45
3       Cc1cccc(F)c1-c1ccc(C(=O)O)s1  RTA (Ricinus communis (Castor bean), UniProt P02879)  inhibition at 50 µM              %            61
4       Cc1cccc(O)c1-c1ccc(C(=O)O)s1  RTA (Ricinus communis (Castor bean), UniProt P02879)  inhibition at 50 µM              %            69

---

Parameter inhibition at 200 µM: see the listing below.
EXPERIMENTAL_SYSTEM: Stx2A1 (Escherichia phage 933W (Bacteriophage 933W))
METHOD_NOTES: biochemical
Format: biochemical
TEST_CONDITIONS: read-out: % inhibition Stx2A1 in yeast ribosome
PROPERTY_NAME: inhibition at 200 µM (%)

> print(dat)
                                   molecule  endpoint.unit  assay.result
1              O=C(O)c1csc(-c2cccc(Cl)c2)n1              %            91
2  O=C(O)c1cc2c(s1)-c1ccccc1CC2 [drawing 373]              %            80
3            O=C(O)c1csc(-c2cccc(Cl)c2Cl)n1              %            62
4               Cc1ccc(-c2ccc(C(=O)O)o2)cc1              %            70

---

EXPERIMENTAL_SYSTEM: Stx2A1 (Escherichia phage 933W (Bacteriophage 933W))
Type: binding
Parameter Kd: see the listing below.
PROPERTY_NAME: Kd (mM)

> print(dat)
                                   compound  endpoint.unit  assay.result
1               Cc1ccc(-c2ccc(C(=O)O)o2)cc1             mM         0.606
2  O=C(O)c1cc2c(s1)-c1ccccc1CC2 [drawing 373]             mM         0.629
3              O=C(O)c1ccc(-c2ccc(Cl)cc2)o1             mM         0.575
4            O=C(O)c1csc(-c2cccc(Cl)c2Cl)n1             mM         0.487
5              O=C(O)c1csc(-c2cccc(Cl)c2)n1             mM         0.579
